Experiment: Soil stability assay
Format: physicochemical
Conditions: Stein soil:sand 1:1, 0.3 μg/g soil, dark, 20° C.
assay_readout: Soil Stability (t1/2, hours) (h)

[
  {
    "molecule": "CC1=C(C)[C@@H](O/C=C2/C(=O)N[C@@H]3c4ccccc4C[C@H]23)OC1=O [(IA-1b)]",
    "assay_readout": "Soil Stability (t1/2, hours)",
    "reported_value": 53
  },
  {
    "molecule": "CC1=C(C)[C@H](O/C=C2/C(=O)N[C@@H]3c4ccccc4C[C@H]23)OC1=O [(IA-1a)]",
    "assay_readout": "Soil Stability (t1/2, hours)",
    "reported_value": 87
  },
  {
    "molecule": "CC1=C[C@@H](O/C=C2/C(=O)N[C@@H]3c4ccccc4C[C@H]23)OC1=O [Compound P2, reference compound]",
    "assay_readout": "Soil Stability (t1/2, hours)",
    "reported_value": 4.2
  },
  {
    "molecule": "COC1=C(C)C(=O)O[C@H]1O/C=C1/C(=O)N[C@@H]2c3ccccc3C[C@H]12 [(IA-17a)]",
    "assay_readout": "Soil Stability (t1/2, hours)",
    "reported_value": 340
  },
  {
    "molecule": "CC1=C[C@H](O/C=C2/C(=O)N[C@@H]3c4ccccc4C[C@H]23)OC1=O [Compound P1, reference compound]",
    "assay_readout": "Soil Stability (t1/2, hours)",
    "reported_value": 4
  },
  {
    "molecule": "COC1=C(C)C(=O)O[C@@H]1O/C=C1/C(=O)N[C@@H]2c3ccccc3C[C@H]12 [(IA-17b)]",
    "assay_readout": "Soil Stability (t1/2, hours)",
    "reported_value": 312
  }
]

###

Experiment: Hydrolytic stability assay
Type: physicochemical
Conditions: 20 mM mixed acetate, borate and phosphate buffer; pH 9, 20 mM acetate/borate/phosphate buffer, 40° C.; read-out: Hydrolytic Stability (t1/2, hours) pH 9 (converted)
// classify: if (half-life < 2 h) criterion met else criterion not met

[
  {
    "compound": "COC1=C(C)C(=O)O[C@H]1O/C=C1/C(=O)N[C@@H]2c3ccccc3C[C@H]12 [(IA-17a)]",
    "answer_label": "criterion not met"
  },
  {
    "compound": "CC1=C(C)[C@@H](O/C=C2/C(=O)N[C@@H]3c4ccccc4C[C@H]23)OC1=O",
    "answer_label": "criterion not met"
  },
  {
    "compound": "CC1=C(C)[C@H](O/C=C2/C(=O)N[C@@H]3c4ccccc4C[C@H]23)OC1=O",
    "answer_label": "criterion not met"
  },
  {
    "compound": "CC1=C[C@@H](O/C=C2/C(=O)N[C@@H]3c4ccccc4C[C@H]23)OC1=O [Compound P2, reference compound]",
    "answer_label": "criterion met"
  },
  {
    "compound": "COC1=C(C)C(=O)O[C@@H]1O/C=C1/C(=O)N[C@@H]2c3ccccc3C[C@H]12 [(IA-17b)]",
    "answer_label": "criterion not met"
  },
  {
    "compound": "CC1=C[C@H](O/C=C2/C(=O)N[C@@H]3c4ccccc4C[C@H]23)OC1=O [Compound P1, reference compound]",
    "answer_label": "criterion met"
  }
]

###

Test: Hydrolytic stability assay
Type: physicochemical
Details: 20 mM mixed acetate, borate and phosphate buffer; pH 7, 20 mM acetate/borate/phosphate buffer, 40° C.; read-out: Hydrolytic Stability (t1/2, hours) pH 7 (converted)

[
  {
    "compound": "CC1=C[C@@H](O/C=C2/C(=O)N[C@@H]3c4ccccc4C[C@H]23)OC1=O [Compound P2, reference compound]",
    "half-life": "79.5 h"
  },
  {
    "compound": "CC1=C[C@H](O/C=C2/C(=O)N[C@@H]3c4ccccc4C[C@H]23)OC1=O [Compound P1, reference compound]",
    "half-life": "25.6 h"
  }
]
